The reported numbers originate from patent US20170232083A1.

Tested on: PBMC (polyclonal gluten-specific T cells) of paediatric and adult CD patients
ASSAY_NAME: IFN-γ ELISpot of PBMC after 3 day oral wheat challenge (SFU, % of maximal peptide response, dominance scores, EC50; Examples 5-6)
Type: cell-based, human
CONDITIONS_USED: subject K (3-5yrs/6-10yrs part), following wheat challenge
For each of the sequences below, state its Cross-reactive T cell response.
Number only, in SFU; omit the unit.

# Cross-reactive T cell response (sequence: QPFPQPEQPFPQS ) is 18

# Cross-reactive T cell response (sequence: LPFPQPEQPFVVV ) is 18

# Cross-reactive T cell response (sequence: NPLQPEQPFPLQPQPP ) is 19

# Cross-reactive T cell response (sequence: QPFPQPEQPFPWQP ) is 18.5

# Cross-reactive T cell response (sequence: PEQPFQPEQPFPQQ ) is 8

# Cross-reactive T cell response (sequence: PEQPQPFPEQPVPQQP ) is 4

# Cross-reactive T cell response (sequence: QLFPLPEQPFPQP ) is 5

# Cross-reactive T cell response (sequence: QPFPQPEQELPLQ ) is 13

# Cross-reactive T cell response (sequence: QPFPQPEQPFSWQ ) is 20

# Cross-reactive T cell response (sequence: PFPLQPEQPVPEQPQ ) is 5

# Cross-reactive T cell response (sequence: QPFPQPEQPTPIQ ) is 7

# Cross-reactive T cell response (sequence: QPFPQPEQPFPLQ ) is 29

# Cross-reactive T cell response (sequence: QPFPQPEQPFRQQ ) is 21

# Cross-reactive T cell response (sequence: QPEQPFPLQPEQPVP ) is 8

# Cross-reactive T cell response (sequence: PEQPFPEQPQPYPQQP ) is 6

# Cross-reactive T cell response (sequence: QEFPQPEQPFPQQ ) is 21

# Cross-reactive T cell response (sequence: FPQTEQPEQPFPQP ) is 19

# Cross-reactive T cell response (sequence: QPFPQPEQPIPQQ ) is 11

# Cross-reactive T cell response (sequence: QPFPQPEQQLPLQ ) is 9

# Cross-reactive T cell response (sequence: QPFPQPEQPIPYQ ) is 21

* * *

For each of the sequences below, state its IFN-γ ELISpot response.
System: PBMC (polyclonal gluten-specific T cells) of paediatric and adult CD patients
ASSAY_NAME: IFN-γ ELISpot of PBMC after 3 day oral wheat challenge (SFU, % of maximal peptide response, dominance scores, EC50; Examples 5-6)
Format: cell-based, human
CONDITIONS_USED: patient H, 11-17 yrs; after oral wheat challenge; cut-off 10 SFU
The number alone won't do; follow it with the unit.

# IFN-γ ELISpot response (sequence: QPFPQPQQPIPVQ [Peptide W04] ) is 4 SFU

# IFN-γ ELISpot response (sequence: PFPEQPEQPYPQQ ) is 1 SFU

# IFN-γ ELISpot response (sequence: FPQPQQQFPQPQQ ) is 5 SFU

# IFN-γ ELISpot response (sequence: FPQPEQEFPQPQQ ) is 9 SFU

# IFN-γ ELISpot response (sequence: LQPRPQPELPYPQP ) is 10 SFU

# IFN-γ ELISpot response (sequence: PQQPQQSFPQQQQPA ) is 1 SFU

# IFN-γ ELISpot response (sequence: PEQPFPEQPEQPF ) is 9 SFU

# IFN-γ ELISpot response (sequence: QPFPQPEQPFPWQ [Peptide W03, contains DQ2.5-glia-w1 and w2] ) is 6 SFU

# IFN-γ ELISpot response (sequence: PFPEQPEQPFPQP ) is 17 SFU

# IFN-γ ELISpot response (sequence: YEVIRSLVLRTLPN ) is 3 SFU

# IFN-γ ELISpot response (sequence: PEQTFPEQPQLPF ) is 9 SFU
